targetEntity: C3H polypeptide (CYP98A3) (Arabidopsis thaliana, UniProt O22203)
Sequence (O22203 1-508): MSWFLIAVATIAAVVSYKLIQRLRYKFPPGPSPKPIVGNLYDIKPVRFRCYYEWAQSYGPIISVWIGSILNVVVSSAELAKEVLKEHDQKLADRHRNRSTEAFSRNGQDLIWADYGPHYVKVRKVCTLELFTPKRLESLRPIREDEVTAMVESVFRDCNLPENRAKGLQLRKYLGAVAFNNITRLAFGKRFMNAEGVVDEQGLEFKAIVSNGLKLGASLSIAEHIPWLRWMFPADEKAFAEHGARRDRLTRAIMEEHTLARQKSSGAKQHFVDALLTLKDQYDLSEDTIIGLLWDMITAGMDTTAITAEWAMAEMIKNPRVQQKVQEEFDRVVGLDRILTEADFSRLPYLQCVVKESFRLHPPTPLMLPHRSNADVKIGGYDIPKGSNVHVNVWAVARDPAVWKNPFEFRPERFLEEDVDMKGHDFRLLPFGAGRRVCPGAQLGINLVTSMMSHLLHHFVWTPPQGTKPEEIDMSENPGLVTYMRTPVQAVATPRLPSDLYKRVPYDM
protocolSummary: in vitro C3H assay with microsomes from yeast expressing CYP98A3
measurementConditions: yeast microsomes, NADPH regenerating system, 60 min, 30 C, HPLC
measurementKind: activity of C3H toward substrate

compound="OCC=Cc1ccc(O)cc1 [p-hydroxycinnamyl alcohol]" measurementkind="activity of C3H toward substrate" measurement="no activity"
compound="CC(C)(COP(=O)(O)OP(=O)(O)OC[C@H]1O[C@@H](n2cnc3c(N)ncnc32)[C@H](O)[C@@H]1OP(=O)(O)O)[C@@H](O)C(=O)NCCC(=O)NCCSC(=O)/C=C/c1ccc(O)cc1 [p-coumaroyl CoA]" measurementkind="activity of C3H toward substrate" measurement="no activity"
compound="O=C(/C=C/c1ccc(O)cc1)O[C@@H]1O[C@H](CO)[C@@H](O)[C@H](O)[C@H]1O [1-O-p-coumaroyl—D-glucose]" measurementkind="activity of C3H toward substrate" measurement="no activity"
